MEASURED_ON: HscFRS (Homo sapiens, UniProt Q9Y285)
Sequence (Q9Y285 1-508): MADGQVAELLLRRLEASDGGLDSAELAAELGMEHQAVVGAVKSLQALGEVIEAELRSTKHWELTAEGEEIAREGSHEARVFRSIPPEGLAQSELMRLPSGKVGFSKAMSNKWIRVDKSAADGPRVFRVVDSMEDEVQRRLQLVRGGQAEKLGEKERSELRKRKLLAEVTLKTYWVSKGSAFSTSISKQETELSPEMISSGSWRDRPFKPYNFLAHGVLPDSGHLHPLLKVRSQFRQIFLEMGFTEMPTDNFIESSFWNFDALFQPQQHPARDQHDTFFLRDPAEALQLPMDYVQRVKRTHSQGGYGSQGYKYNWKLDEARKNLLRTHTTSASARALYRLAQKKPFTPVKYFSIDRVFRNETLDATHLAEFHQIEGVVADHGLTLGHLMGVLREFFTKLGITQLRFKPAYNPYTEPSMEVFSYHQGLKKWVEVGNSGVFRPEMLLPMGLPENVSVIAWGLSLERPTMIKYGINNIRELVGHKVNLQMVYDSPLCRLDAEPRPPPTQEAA
Sequence (Q9NSD9 1-589 partner): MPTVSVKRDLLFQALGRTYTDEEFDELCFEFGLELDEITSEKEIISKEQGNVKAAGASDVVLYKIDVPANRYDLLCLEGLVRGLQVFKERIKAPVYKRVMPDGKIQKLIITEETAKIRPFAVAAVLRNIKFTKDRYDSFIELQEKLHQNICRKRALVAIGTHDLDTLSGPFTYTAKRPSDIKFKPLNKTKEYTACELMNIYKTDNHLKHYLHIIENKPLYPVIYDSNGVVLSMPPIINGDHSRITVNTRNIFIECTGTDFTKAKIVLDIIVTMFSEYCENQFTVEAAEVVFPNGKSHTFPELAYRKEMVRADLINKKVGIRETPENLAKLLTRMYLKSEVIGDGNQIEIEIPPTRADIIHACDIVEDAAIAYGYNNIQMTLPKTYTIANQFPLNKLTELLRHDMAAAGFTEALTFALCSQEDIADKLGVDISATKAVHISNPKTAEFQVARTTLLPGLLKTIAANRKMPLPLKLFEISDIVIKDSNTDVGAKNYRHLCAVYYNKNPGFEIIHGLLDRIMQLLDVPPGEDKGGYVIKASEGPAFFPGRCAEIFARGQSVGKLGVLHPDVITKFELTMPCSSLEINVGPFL
PROPERTY_NAME: Kd (µM)
// note: answer is a bare numeric in µM

Ask | Which measured Kd value corresponds to COC[C@@H]1[C@H](c2ccc(C#Cc3ccccc3)cc2)[C@@H]2CN(C(=O)Nc3ccc(OC4CC4)cc3)C[C@@H](O)[C@@H](O)CN12 ?
Reply | 16
